L, fibril contour length values, listed per item
- Method: Fibril dimensions measured from TEM images
- Format: physicochemical
- Stated conditions: physiological conditions, TEM
Where a SMILES comes first, the peptide text is derived from it. [ ]: non-standard residue; d: D form. Orn = NCCC[C@H](N)C(=O)O
Measure: L, fibril contour length

{"columns": ["Compound", "Readout value"],
 "data": [
  ["CC(=O)N[C@@H](CCC(N)=O)C(=O)N[C@@H](CCC(N)=O)C(=O)N[C@@H](CCCNC(=N)N)C(=O)N[C@@H](Cc1ccccc1)C(=O)N[C@@H](CCCN)C(=O)N[C@@H](Cc1c[nH]c2ccccc12)C(=O)N[C@@H](CCCN)C(=O)N[C@@H](Cc1ccccc1)C(=O)N[C@@H](CCC(=O)O)C(=O)N[C@@H](CCC(N)=O)C(=O)N[C@@H](CCC(N)=O)C(N)=O [Peptide P11-8, CH3CO-Q-Q-R-F-O-W-O-F-E-Q-Q-NH2] (Ac-QQRF[Orn]W[Orn]FEQQ-NH2)", "1.2-6.3 μm"],
  ["CC(=O)N[C@@H](CCC(N)=O)C(=O)N[C@@H](CCC(N)=O)C(=O)N[C@@H](CCCNC(=N)N)C(=O)N[C@@H](CCC(N)=O)C(=O)N[C@@H](CCC(=O)O)C(=O)N[C@@H](CCC(N)=O)C(=O)N[C@@H](CCC(=O)O)C(=O)N[C@@H](CCC(N)=O)C(=O)N[C@@H](CCC(=O)O)C(=O)N[C@@H](CCC(N)=O)C(=O)N[C@@H](CCC(N)=O)C(N)=O [Peptide P11-20, CH3CO-Q-Q-R-Q-E-Q-E-Q-E-Q-Q-NH2] (Ac-QQRQEQEQEQQ-NH2)", "0.9-2.8 μm"]
]}
